Values compiled from patent US20160009772A1.

Biological target: N-terminal His (six histadine)-tagged IRF5 (222-425) SEQ ID NO 22 (UniProt Q13568 222-425)
Sequence (Q13568 other isoform, or with tags, fused parts or gaps): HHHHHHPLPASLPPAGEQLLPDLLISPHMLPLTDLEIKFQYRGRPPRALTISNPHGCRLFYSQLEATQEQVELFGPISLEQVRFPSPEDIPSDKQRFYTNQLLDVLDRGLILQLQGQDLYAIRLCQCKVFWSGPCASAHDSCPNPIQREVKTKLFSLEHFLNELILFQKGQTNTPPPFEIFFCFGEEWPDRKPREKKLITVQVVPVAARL
Test: TR-FRET
Primed or numbered codes have the meaning given here. FITC′ = fluorescein isothiocyanate; Ahx = NCCCCCC(=O)O
Entries annotated with measured pKd
pKd here is simply -log10 of the concentration when that concentration is written in mol/L.

{FITC′-Ahx}-MIILIISFPKHKDWKVILVK-NH2 [FITC-Aha-MIILIISFPKHKDWKVILVK-NH2 (SEQ ID NO: 17)] : 6.28

Please give the measured pKd for this binder: {FITC′-Ahx}-IRLQISNPYLKFIPLKRAIWLIK-NH2 [FITC-Aha-IRLQISNPYLKFIPLKRAIWLIK-NH2 (SEQ ID NO: 16)]
6.03
